system: Escherichia coli TOP10; experiment: shrunken log2 fold change of peptide-encoding DNA abundance (4.5 h post-induction vs induction); higher = less antimicrobial activity (less host growth inhibition); details: time post-induction: 4.5 h; library: site-saturation at positions 5, 18, 19, 20
Entry flag: t if shrunken log2 fold change reaches 0.1; f if it does not.

>>> discrete_label("RRIRIRPPRLPRPRPRPVCEPRP")
"f"
>>> discrete_label("RRIRVRPPRLPRPRPRPFCCPRP")
"f"
>>> discrete_label("RRIRPRPPRLPRPRPRPKNRPRP")
"f"
>>> discrete_label("RRIRLRPPRLPRPRPRPAFCPRP")
"t"
>>> discrete_label("RRIRTRPPRLPRPRPRPDPKPRP")
"t"
>>> discrete_label("RRIRNRPPRLPRPRPRPSCAPRP")
"f"
>>> discrete_label("RRIRGRPPRLPRPRPRPKKIPRP")
"t"
>>> discrete_label("RRIRRRPPRLPRPRPRPCVIPRP")
"f"

API: above_or_equal(metric=shrunken log2 fold change, cutoff=0.1) for item `RRIRARPPRLPRPRPRPIPRPRP`
t

API: above_or_equal(metric=shrunken log2 fold change, cutoff=0.1) for item `RRIRARPPRLPRPRPRPHGVPRP`
f

API: above_or_equal(metric=shrunken log2 fold change, cutoff=0.1) for item `RRIRRRPPRLPRPRPRPPTCPRP`
t

API: above_or_equal(metric=shrunken log2 fold change, cutoff=0.1) for item `RRIRMRPPRLPRPRPRPERMPRP`
t

API: above_or_equal(metric=shrunken log2 fold change, cutoff=0.1) for item `RRIRKRPPRLPRPRPRPKMQPRP`
f

API: above_or_equal(metric=shrunken log2 fold change, cutoff=0.1) for item `RRIRIRPPRLPRPRPRPPGQPRP`
f

API: above_or_equal(metric=shrunken log2 fold change, cutoff=0.1) for item `RRIRLRPPRLPRPRPRPNYEPRP`
f

API: above_or_equal(metric=shrunken log2 fold change, cutoff=0.1) for item `RRIRARPPRLPRPRPRPVRNPRP`
t

API: above_or_equal(metric=shrunken log2 fold change, cutoff=0.1) for item `RRIRLRPPRLPRPRPRPTLDPRP`
f

###

tested on: Escherichia coli TOP10; test: shrunken log2 fold change of peptide-encoding DNA abundance (4.5 h post-induction vs induction); higher = less antimicrobial activity (less host growth inhibition); details: time post-induction: 4.5 h; library: site-saturation at positions 5, 18, 19, 20;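 note: peptides expressed intracellularly from a pBAD plasmid library in pooled LB shake-flask culture, induced with 0.3% L-arabinose, DNA abundance read by NGS, three biological replicates, DESeq2 with apeglm shrinkage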
Entry flag: Satisfied if shrunken log2 fold change reaches -0.4; Not satisfied if it does not.

Example entries and their recorded answers appear below.
>>> discrete_label("RRIRRRPPRLPRPRPRPWAAPRP")
"Satisfied"
>>> discrete_label("RRIRIRPPRLPRPRPRPLELPRP")
"Not satisfied"
>>> discrete_label("RRIRQRPPRLPRPRPRPVLPPRP")
"Satisfied"
>>> discrete_label("RRIRCRPPRLPRPRPRPNKRPRP")
"Not satisfied"
>>> discrete_label("RRIRKRPPRLPRPRPRPVLSPRP")
"Satisfied"

API: above_or_equal(metric=shrunken log2 fold change, cutoff=-0.4) for item `RRIRNRPPRLPRPRPRPLIYPRP`
Satisfied

API: above_or_equal(metric=shrunken log2 fold change, cutoff=-0.4) for item `RRIRIRPPRLPRPRPRPNEHPRP`
Not satisfied

API: above_or_equal(metric=shrunken log2 fold change, cutoff=-0.4) for item `RRIRQRPPRLPRPRPRPPFTPRP`
Satisfied
